test system: L. mexicana SUPKO+TcoAT1; assay: microbe, parasite or virus in culture; format: cell-based, Leishmania mexicana; details: Leishmania mexicana, read-out: SUPKO+TcoAT1 EC50
In this section, each of the compounds is paired with its reported pEC50.
// scale note: pEC50 = -log10(conc_M); give the bare number

INSERT INTO assay_data (cpd_smiles, result_number) VALUES
  ('Nc1ncnc2c1c(C(F)(F)F)cn2[C@@H]1O[C@H](CO)[C@@H](O)[C@H]1O', 5.42);

Looking for the measured pEC50 of `Nc1ncnc2c1c(Br)cn2[C@@H]1O[C@H](CO)C[C@H]1O` , can you help?
4.57

###

system: T. congolense IL3000; assay: Alamar Blue (resazurin) assay, T. congolense IL3000; format: cell-based, Trypanosoma congolense; details: Trypanosoma congolense, read-out: T. congolense IL3000 EC50
value-kind: pEC50
Entry type: numeric. Quantity: pEC50, the -log10 of concentration in molar units.

Solved entries (count: 2):
INSERT INTO assay_data (compound, value_kind, result_number) VALUES
  ('N=C(N)c1ccc(/N=N/Nc2ccc(C(=N)N)cc2)cc1 [Diminazene, reference compound]', 'pEC50', 6.64),
  ('Nc1ncnc2c1c(C(F)(F)F)cn2[C@@H]1O[C@H](CO)[C@@H](O)[C@H]1O [FH6367, 7-trifluoromethyl-7-deazaadenosine]', 'pEC50', 5.74);

Recorded pEC50 for Nc1ncnc2c1ccn2[C@@H]1O[C@H](CO)[C@@H](O)[C@H]1O [Tubercidin, 7-deazaadenosine] , please?
5.50

Fill blank: measured pEC50 of the compound Nc1ncnc2c1c(Br)cn2[C@@H]1O[C@H](CO)C[C@H]1O [FH7429_u, 7-bromo-7-deaza-3′-deoxyadenosine] is ____.
9.16

###

experiment: Resazurin toxicity assay on human embryonic kidney cells; assay type: cell-based; conditions: human
value-kind: EC50
# do not omit the unit; it follows the number

Record excerpt, results attached:
INSERT INTO assay_data (compound, result) VALUES
  ('Nc1ncnc2c1c(F)cn2[C@@H]1O[C@H](CO)[C@@H](O)[C@H]1O [FH3167, 7-deaza-7-fluoroadenosine]', '0.49 µM'),
  ('Nc1ncnc2c1c(Br)cn2[C@@H]1O[C@H](CO)C[C@H]1O [FH7429_u, 7-bromo-7-deaza-3′-deoxyadenosine]', '2.18 µM'),
  ('Nc1ncnc2c1c(Cl)cn2[C@@H]1O[C@H](CO)C[C@H]1O [FH8470, 7-chloro-7-deaza-3′-deoxyadenosine]', '12 µM');

Could you tell me which EC50 is on file for Nc1ncnc2c1c(C(F)(F)F)cn2[C@@H]1O[C@H](CO)[C@@H](O)[C@H]1O [FH6367, 7-trifluoromethyl-7-deazaadenosine] ?
0.49 µM

###

tested on: L. mexicana SUPKO+TvxNT3; test: microbe, parasite or virus in culture; format: cell-based, Leishmania mexicana; settings: resazurin, promastigotes; read-out: SUPKO+TvxNT3 EC50
value-kind: pEC50
pEC50 field: float, defined as -log10 of concentration (mol/L).

INSERT INTO assay_data (cpd_smiles, result_number) VALUES
  ('Nc1ncnc2c1c(F)cn2[C@@H]1O[C@H](CO)C[C@H]1O', 5.03);

// moving on: another record for pEC50
What value of pEC50 has been reported for the following molecule? `C#Cc1cn([C@@H]2O[C@H](CO)C[C@H]2O)c2ncnc(N)c12`
4.10
